# maps each entry to its zone of inhibition at 75 µg/mL
Test system: Proteus mirabilis
Assay: Antimicrobial activity against Proteus mirabilis at 75 ug/ml after 24 hrs by agar diffusion method
Assay type: functional
Settings: read-out: IZ
value_type: zone of inhibition at 75 µg/mL

1) Cc1ccc([C@@H]2CN(C)[C@@]3(C(=O)c4cccc5cccc3c45)[C@]23CCc2c([nH]c4ccccc24)C3=O)cc1 = 18 mm
2) COc1ccc([C@@H]2CN(C)[C@@]3(C(=O)Nc4ccccc43)[C@]23CCc2c([nH]c4ccccc24)C3=O)cc1 = 16 mm
3) Cc1ccc([C@@H]2CN(C)C3(C(=O)c4ccccc4C3=O)[C@]23CCc2c([nH]c4ccccc24)C3=O)cc1 = 14 mm
4) COc1ccc([C@@H]2CN(C)[C@@]3(C(=O)c4cccc5cccc3c45)[C@]23CCc2c([nH]c4ccccc24)C3=O)cc1 = 20 mm
5) CN1C[C@@H](c2ccc([N+](=O)[O-])cc2)[C@@]2(CCc3c([nH]c4ccccc34)C2=O)[C@]12C(=O)c1cccc3cccc2c13 = 17 mm
6) Cc1ccc([C@@H]2CN(C)[C@@]3(C(=O)Nc4ccccc43)[C@]23CCc2c([nH]c4ccccc24)C3=O)cc1 = 16 mm
7) CN1C[C@@H](c2ccccc2)[C@@]2(CCc3c([nH]c4ccccc34)C2=O)[C@]12C(=O)c1cccc3cccc2c13 = 22 mm
